Origin of values: paper PMC4027180

# Test system: Stf76 (Sulfolobus islandicus plasmid-virus pSSVx)
# Test name: ITC
# Experimental context: EMSA: 20 mM Tris-acetate pH 8.0, 50 mM K acetate, 10 mM Mg acetate, 1 mM DTT, 5% glycerol, 1 ug salmon sperm DNA, 50 C protein pre-incubation, binding 37 C …
Experimental readout: Kd (nM)
Field: numeric (nM). Do not append units.

Lab book: Kd of GGAAACAGTATTAATAAAGTGTTAATCCTATTACCC (double strand) [probe A' (35 bp-site A)] noted as 40
